B1: FAM164A (parent)
chain: YDPDYIQCPYCQRRFNENAADRHI

- Variants of: B1
- runDescription: protein stability index of a GFP-peptide fusion (GPS, HEK-293T) (PSI 1-6); higher = more stable;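 further: lentivirally expressed fusions sorted by FACS into six bins by GFP to DsRed ratio, PSI derived from sequencing read proportions per bin multiplied by bin number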
- conditions: c terminus: a fixed tail appended
Binary classification by protein stability index, with 4 as an inclusive lower bound for rule met; all other cases are rule not met.

sequencecode="WDPDYIQCPYCQRRFNENAADRHI [Y1W]" label="rule met"
sequencecode="YDPDYIQCIYCQRRFNENAADRHI [P9I]" label="rule not met"
sequencecode="YDPDYIQCPICQRRFNENAADRHI [Y10I]" label="rule not met"
sequencecode="YDPDYIQCPYCQRRFNENAADRNI [H23N]" label="rule met"
sequencecode="YTPDYIQCPYCQRRFNENAADRHI [D2T]" label="rule not met"

Task: hey, is protein stability index for this one >= 4? YDPDYIQCPYCQRRFNENAADRHK [I24K]
Output: rule met

Task: Decide: is the reported value of protein stability index for YDPDYIQCPYCQRRFNENAATRHI [D21T] equal to or greater than 4?
Output: rule met

Task: Decide: is the reported value of protein stability index for YDPDYIQCPYCQHRFNENAADRHI [R13H] equal to or greater than 4?
Output: rule not met

Task: # bool: protein stability index of YDPDYIQCPYCQRRFNWNAADRHI [E17W] >= 4
Output: rule met

Task: protein stability index >= 4 for YDPDYIQCPYCQRRFRENAADRHI [N16R] ?
Output: rule met

Task: Dear colleague, could you confirm whether YDPDYIQCPYCQRRFNINAADRHI [E17I] has protein stability index at or above 4?
Output: rule met

Task: Hi team, for YDPEYIQCPYCQRRFNENAADRHI [D4E] , is the recorded protein stability index at or above 4?
Output: rule met

Task: Kindly determine if protein stability index recorded for YDPDYIQCPYCQRRFNENTADRHI [A19T] is above or exactly 4.
Output: rule met

Task: Kindly determine if protein stability index recorded for PDPDYIQCPYCQRRFNENAADRHI [Y1P] is above or exactly 4.
Output: rule met

Task: Is reported protein stability index greater than or equal to 4 here: YDPDPIQCPYCQRRFNENAADRHI [Y5P]
Output: rule not met

Task: Has YDPDYIQCPYCQRRFNENAADGHI [R22G] a recorded protein stability index greater than or equal to 4?
Output: rule met

Task: I'd appreciate it if you could say whether YDPDYYQCPYCQRRFNENAADRHI [I6Y] has protein stability index at least equal to 4.
Output: rule not met

Task: Answer whether protein stability index of YDPDYEQCPYCQRRFNENAADRHI [I6E] is greater than or equal to 4.
Output: rule not met
